Test system: MRP1 cells, doxorubicin viability shift, 10 uM compound
Test: viability protection against doxorubicin, MRP-1 line – cell-based, doxorubicin EC50 shift, dose response (AID 844)
READOUT: fold increase in Dox EC50

O=C(CC1SC(=O)N(Cc2ccc(Cl)cc2)C1=O)Nc1nccs1 (stereo unspecified)	1.75
O=c1cc(CN2CCN(c3cccc(Cl)c3)CC2)c2cc3c(cc2o1)CCCC3	0.74
CSC1=NCCN1C(=O)Cc1ccc(Cl)cc1	1.04
CCc1c(C)sc(NC(=O)c2cccs2)c1C(=O)OC(C)C	0.42
Cc1ccc(CN2C(=O)NC(=O)C3(Cc4c(nc5ccccn5c4=O)N4CCCCCC43)C2=O)cc1 (stereo unspecified)	1.02
CCOC(=O)c1[nH]c2cc(OC)c(OC)cc2c1N	0.96
CC1CCN(c2ncnc3c2cnn3-c2ccccc2)CC1	0.31
C=C(Cl)COc1ccc2c(CCCC)cc(=O)oc2c1	0.81
C/C(=N/NC(=S)Nc1ccccc1)c1ccc2c(c1)OCO2	1.01
Cc1cc(C)n(-c2ccc(C(=O)Nc3cccc(S(=O)(=O)N(C)C)c3)cc2)n1	0.73
CC(C)(C)NC(=O)c1cccc(NC(=O)Cc2ccc(Br)cc2)c1	0.97

---

The following molecules are listed with their measured fold increase in Dox EC50 values.
Tested on: MRP1 cells, doxorubicin viability shift, 10 uM compound
Assay: viability protection against doxorubicin, MRP-1 line – cell-based, doxorubicin EC50 shift, dose response (AID 844)
READOUT: fold increase in Dox EC50

CCc1nnc(NC(=O)c2ccc(S(=O)(=O)NCC(C)C)cc2)s1	0.53
CC(C)Oc1ccc(CSC(=N)N)cc1	0.89
Cn1c(=O)n(C/C=C/c2ccccc2)c(=O)c2c1nc1n2CCCN1c1ccc(F)cc1	0.76

---

System: MRP1 cells, doxorubicin viability shift, 10 uM compound
Assay: viability protection against doxorubicin, MRP-1 line – cell-based, doxorubicin EC50 shift, dose response (AID 844)
READOUT: fold increase in Dox EC50

CCCCOc1ccc(C(=O)Oc2ccc(C)nc2)cc1	0.9
N#C/C(=N\Nc1ccccc1F)C(=N)N1CCCCC1	0.79
CC(C)(C)C1CCc2c(sc(NC(=O)c3cccs3)c2C(=O)N2CCCCC2)C1 (centres undefined)	0.96
O=C1CSC(=S)N1N=C1CCCCCC1	0.92
C=CCN(C(=O)Nc1ccc(Cl)cc1)C1CC(=O)N(c2ccc(OC)cc2)C1=O (centres undefined)	0.9
Cc1nc(=O)c(-c2ccccc2)c(C)n1-c1cccc(C(=O)O)c1	1.26
CCOC(=O)C1=C(C)Nc2sc(C(=O)c3ccc(C)cc3)c(N)c2C1c1ccc(C(=O)OC)cc1 (centres undefined)	0.36
c1coc(C2Nc3cccc4cccc(c34)N2)c1	0.21
Cc1cc(C)c(N=Cc2c(O)n(-c3nccs3)c(=O)c3ccccc23)c(C)c1	0.29
CC1CC(C)CN(c2ncnc3c2cnn3-c2ccc(Cl)cc2)C1 (centres undefined)	0.35
O=C(CC(c1ccccc1)c1ccccc1)Nc1ncn[nH]1	0.75
COc1ccccc1NC(=O)c1sc2nc(-c3ccco3)ccc2c1N	0.85
O=C1c2cccc3cccc(c23)C(=O)N1c1ccncc1	1.13
O=C1CC(c2ccccc2)c2cc(O)ccc2O1 (centres undefined)	0.99

---

Test system: MRP1 cells, doxorubicin viability shift, 10 uM compound
Assay: viability protection against doxorubicin, MRP-1 line – cell-based, doxorubicin EC50 shift, dose response (AID 844)
Reported fold increase in Dox EC50 is given for each of the following molecules.
READOUT: fold increase in Dox EC50

Cc1ccnc(NC(=O)COc2ccc3oc4c(c3c2)CCCC4)c1	0.78
N#Cc1nc(COc2ccc(Br)cc2)oc1NCCN1CCOCC1	0.83
N#Cc1cc2c(nc1SCc1ccc(Cl)cc1)CCCC2	1.07
COc1ccc(N(C(=O)Cn2cnc3ccccc32)C(C(=O)NC2CCCCC2)c2ccccc2)cc1 (configuration not stated)	0.38
CCCCc1ccc(-c2nc(-c3ccncc3)no2)cc1	0.76
c1ccc2c(-c3nc(C4CCCCC4)no3)cc(-c3ccncc3)nc2c1	0.62
O=C(NCC(F)(F)F)Nc1nnc(C(F)(F)F)s1	1.54
CC(C)(C)c1ccc(OCC(O)CSc2ncn[nH]2)cc1 (configuration not stated)	0.88
CCOC(=O)c1ccc(NC(=O)C2CCN(C(=O)c3ccc(OC)c(OC)c3)CC2)cc1	0.99
O=C1NC(=O)C2(COC(c3ccccc3Cl)OC2)S1 (configuration not stated)	0.69
O=C(Nc1ccc(F)cc1)c1c(O)c2c(n(Cc3ccccc3)c1=O)CCCC2	1.31
Cc1nn(Cc2c(F)c(F)c(F)c(F)c2F)c(C)c1NC(=O)c1ccc(COc2ccc(F)cc2)o1	1
Cc1nnc(NC(=O)c2ccccc2Br)s1	1.05
CS(=O)(=O)Nc1nnc(Cc2ccccc2)s1	0.75
CCCOc1ccc(C(=O)Nc2ccc(N3CCN(C(C)=O)CC3)cc2)cc1	1.06
O=C1CSC2=NCN(c3ccccc3)CN12	0.55
CCCCCCCOc1ccc(-c2ccc(C#N)cn2)cc1	0.67

---

Tested on: MRP1 cells, doxorubicin viability shift, 10 uM compound
Test: viability protection against doxorubicin, MRP-1 line – cell-based, doxorubicin EC50 shift, dose response (AID 844)
Please respond with MET when measured fold increase in Dox EC50 is strictly beneath 1, and with NOT MET in all other cases.

Cc1ccc(N2C(=O)Nc3ccc(Br)cc3C2(O)C(=O)NCCCN(C)C)cc1C (stereo not drawn)	MET
CC(CCc1ccccc1)NC(=O)C1CCN(C(=O)c2sccc2-n2cccc2)CC1 (stereo not drawn)	MET
CCCCNc1oc(-c2ccc(OC)cc2)nc1S(=O)(=O)c1ccccc1	MET
O=C(Cc1ccccc1F)Nc1cccc2cccnc12	NOT MET
c1ccc(-n2ncc3c(NCc4cccnc4)ncnc32)cc1	MET
Cc1nc2c(ccc3nc(NC(=O)C(c4ccccc4)c4ccccc4)sc32)s1	MET
O=c1c(-c2nnc(SCc3ccc(Cl)cc3)o2)cccn1Cc1ccccc1	MET
O=C1/C(=C\c2ccco2)SC(=S)N1c1ccc(O)cc1	MET
O=C(CSCc1ccc(Cl)cc1)NCC1CCCO1 (stereo not drawn)	NOT MET
O=C1[C@@H]2[C@H](Cc3ccc(O)cc3)N[C@]3(C(=O)Nc4ccccc43)[C@@H]2C(=O)N1c1ccc(F)cc1	NOT MET
CCCCCCC1CC(CSc2ncn[nH]2)OC1=O (stereo not drawn)	NOT MET
Cc1noc(/C=C/N(C)C)c1S(=O)(=O)N1CCCC(C(=O)NCc2ccccc2Cl)C1 (stereo not drawn)	MET
CCCCc1nnc(NC(=O)CSc2nc(=O)cc(N)n2-c2cccc(C)c2)s1	NOT MET
Cc1cc(C(=O)Nc2nnc(C(F)(F)F)s2)no1	NOT MET
Cc1ccc(C)c(N2CCN(C(=O)c3ccc4nc(-c5ccco5)c(-c5ccco5)nc4c3)CC2)c1	MET
Clc1ccc(Cc2nnc(-c3ccccc3Br)o2)cc1	NOT MET
CCOC(=O)c1c(-c2ccc(F)cc2)csc1NC(=O)c1c(-c2ccccc2)noc1C	MET
Cc1ccc(OCc2nnc(SCC(=O)Nc3cccc4ccccc34)n2-c2ccccc2)cc1	MET
COc1ccc(C(=O)Nc2ccc(Cl)c(S(=O)(=O)Nc3ccccc3OC)c2)cc1	MET
Cc1noc(/C=C/N(C)C)c1S(=O)(=O)N1CCCC(C(=O)NCc2ccco2)C1 (stereo not drawn)	NOT MET
Cc1nc(C)c(C(=O)NNS(=O)(=O)c2ccccc2)s1	MET
CCc1nnc(NC(=O)CCC(=O)N2CCN(CCOc3ccc(C)cc3)CC2)s1	NOT MET
COc1ccc(NC2=Nc3ccccc3N3C2=Nc2c(c(C)nn2-c2ccc(C)cc2)C3c2cccnc2)cc1 (stereo not drawn)	MET
Cc1cc(C)n(CCC(=O)N/N=C/c2ccccc2O)n1	MET
O=C(CCN1C(=O)/C(=C\c2ccccc2)SC1=S)NNC(=O)c1cccnc1	NOT MET
CCCCn1nnc(NC(=S)NC(=O)c2cccs2)n1	NOT MET
CCOC(=O)c1sc2nc3n(c(=O)c2c1C)CCCCC3	MET
CCOc1ccc(OCC)c(-c2c(=O)n(OCc3ccc(C(C)(C)C)cc3)c3ccccc3[n+]2[O-])c1	MET
CCC1SC2=NC(C)=C(C(=O)OC)C(c3cccs3)N2C1=O (stereo not drawn)	NOT MET
CCOc1ccc(NC(=O)CN2C(=O)COc3ccc(Cl)cc32)cc1	NOT MET
N/C(=N\N=C\c1ccc2c(c1)OCO2)c1nonc1N	MET
CCc1noc(C)c1C(=O)Nc1nc(-c2cc(C)ccc2C)c(C)s1	MET
Cc1cc(C)c(NC(=O)c2sc3nc4c(cc3c2N)C(=O)CC(C)(C)C4)c(C)c1	MET
COc1ccc(Cc2nnc(NC(=O)c3c(-c4ccccc4)noc3C)s2)cc1OC	MET
CC(NC(=O)C12CC3CC(CC(C3)C1)C2)c1ccc2c(c1)OCCO2 (stereo not drawn)	NOT MET
Cc1cccc(N2CCN(C(=O)c3cc4c(=O)n(C)c5ccccc5c4n3C)CC2)c1C	MET
